- test.target: protein-protein interaction between Kras and SOS1 (biotin-tagged human Kras loaded with GDP, His-tagged human SOS1) (Homo sapiens (Human), UniProt P01116, G12D)
- experiment.description: Protein-protein interaction inhibition between Kras and SOS1 (KrasG12D-SOS PPI) using AlphaScreen
- Format: biochemical
- assay.setup: AlphaScreen; biotin-tagged human Kras loaded with GDP, His-tagged human SOS1; read-out: KRAS G12D-SOS PPI IC50
Numbered stars: 1 amine (or outer) side, 2 acyl side, 3 side chain; on linkers, the order of the positions; unused ones are H or OH. Bridge positions count the residues as written; N and C are the ends. Square brackets hold non-standard residues; d marks the D form. Peptide text beside a SMILES is read from it. * marks the point of attachment. hPhe(3-Cl-4-CF3) = N[C@@H](CCc1ccc(C(F)(F)F)c(Cl)c1)C(=O)O; NMePhe(4-CF3) = CN[C@@H](Cc1ccc(C(F)(F)F)cc1)C(=O)O; hPhe(4-CF3) = N[C@@H](CCc1ccc(C(F)(F)F)cc1)C(=O)O; NMePhe(4-Cl) = CN[C@@H](Cc1ccc(Cl)cc1)C(=O)O; X29 = O=C([C@H](CCc1cc(Cl)ccc1F)N[*:1])[*:2]; NMePhe(4-Me) = CN[C@@H](Cc1ccc(C)cc1)C(=O)O; NMeGly(cPent) = CN[C@H](C(=O)O)C1CCCC1; NMeCha = CN[C@@H](CC1CCCCC1)C(=O)O; NMeF = CN[C@@H](Cc1ccccc1)C(=O)O; NMeD = CN[C@@H](CC(=O)O)C(=O)O; NMeL = CN[C@@H](CC(C)C)C(=O)O; NMeV = CN[C@H](C(=O)O)C(C)C; d(β3hA) = C[C@@H](N)CC(=O)O; NMeA = CN[C@@H](C)C(=O)O; Piperidide = C1CCN(*)CC1; dNMeA = CN[C@H](C)C(=O)O; Ac5c = NC1(C(=O)O)CCCC1; Aze = O=C(O)[C@@H]1CCN1; Aib = CC(C)(N)C(=O)O; Sar = CNCC(=O)O
For each record, check the reported IC50: if it is below 70 nM write met, else write not met.

See these solved cases before continuing.
# TODO verify IC50 < 70 nM strictly for this molecule: CC[C@H](C)[C@@H]1NC(=O)[C@H](C)N(C)C(=O)C[C@@H](C)NC(=O)[C@H](C2CCCC2)N(C)C(=O)C2(CCCC2)NC(=O)[C@@H]2CCCN2C(=O)[C@H](CCc2ccc(C(F)(F)F)c(Cl)c2)NC(=O)[C@@H](C)N(C)C(=O)[C@H](Cc2ccc(C)cc2)N(C)C(=O)[C@@H]2CCN2C(=O)[C@H](C)N(C)C1=O [Compound 1536] (cyclo([Ac5c][NMeGly(cPent)][d(β3hA)][NMeA]I[NMeA][Aze][NMePhe(4-Me)][dNMeA][hPhe(3-Cl-4-CF3)]P))
met

Also need CC[C@H](C)[C@@H]1NC(=O)[C@H](C)N(C)C(=O)C[C@@H](C)NC(=O)[C@H](C(C)C)N(C)C(=O)C2(CCCC2)NC(=O)[C@@H]2CCCN2C(=O)[C@H](CCc2ccc(C(F)(F)F)c(Cl)c2)NC(=O)[C@@H](C)N(C)C(=O)[C@H](CC2CCCCC2)N(C)C(=O)[C@@H]2CCN2C(=O)[C@H](CC(C)C)N(C)C1=O [Compound 2018] (cyclo([Ac5c][NMeV][d(β3hA)][NMeA]I[NMeL][Aze][NMeCha][dNMeA][hPhe(3-Cl-4-CF3)]P)) , thanks.
not met

Let us now turn to CC[C@H](C)[C@@H]1NC(=O)[C@H](CC(C)C)N(C)C(=O)C[C@@H](C)NC(=O)[C@H](C2CCCC2)N(C)C(=O)C2(CCCC2)NC(=O)[C@@H]2CCCN2C(=O)[C@H](CCc2ccc(C(F)(F)F)c(Cl)c2)NC(=O)CN(C)C(=O)[C@H](Cc2ccc(C(F)(F)F)cc2)N(C)C(=O)[C@@H]2CCN2C(=O)[C@H](C)N(C)C1=O [Compound 1475] (cyclo([Ac5c][NMeGly(cPent)][d(β3hA)][NMeL]I[NMeA][Aze][NMePhe(4-CF3)][Sar][hPhe(3-Cl-4-CF3)]P))
met

And what about the molecule CC[C@H](C)[C@@H]1NC(=O)[C@H](CC(C)C)N(C)C(=O)C[C@@H](C(=O)N2CCCCC2)N(C)C(=O)[C@H](C(C)C)N(C)C(=O)C2(CCCC2)NC(=O)[C@@H]2CCCN2C(=O)[C@H](CCc2ccc(C(F)(F)F)c(Cl)c2)NC(=O)CN(C)C(=O)[C@H](CC2CCCCC2)N(C)C(=O)[C@@H]2CCN2C(=O)[C@H](C)N(C)C1=O [Compound 476] ([NMeL]I[NMeA][Aze][NMeCha][Sar][hPhe(3-Cl-4-CF3)]P[Ac5c][NMeV][NMeD]-Piperidide; lactam N-11) ?
met

Quick one: CC[C@H](C)[C@@H]1NC(=O)[C@H](CC(C)C)N(C)C(=O)C[C@@H](C(=O)N2CCCCC2)N(C)C(=O)[C@H](C(C)C)N(C)C(=O)C2(CCCC2)NC(=O)[C@@H]2CCCN2C(=O)[C@H](CCc2ccc(C(F)(F)F)c(Cl)c2)NC(=O)CN(C)C(=O)[C@H](CC2CCCCC2)N(C)C(=O)[C@@H]2CCN2C(=O)[C@@H]2CCCN2C1=O [Compound 709] ([NMeL]IP[Aze][NMeCha][Sar][hPhe(3-Cl-4-CF3)]P[Ac5c][NMeV][NMeD]-Piperidide; lactam N-11)
met

Also check CC[C@H](C)[C@@H]1NC(=O)[C@H](C)N(C)C(=O)C[C@@H](C)NC(=O)[C@H](C2CCCC2)N(C)C(=O)C2(CCCC2)NC(=O)[C@@H]2CCCN2C(=O)[C@H](CCc2ccc(C(F)(F)F)c(Cl)c2)NC(=O)[C@H]2CCCN2C(=O)[C@H](Cc2ccc(C)cc2)N(C)C(=O)CN(C)C(=O)CN(C)C1=O [Compound 1525] (cyclo([Ac5c][NMeGly(cPent)][d(β3hA)][NMeA]I[Sar][Sar][NMePhe(4-Me)][dP][hPhe(3-Cl-4-CF3)]P))
not met

More entries:
Hello, I'm reviewing records and need to know if IC50 of CC[C@H](C)[C@@H]1NC(=O)[C@H](CC(C)C)N(C)C(=O)C[C@@H](C)NC(=O)[C@H](CC(C)C)N(C)C(=O)C(C)(C)NC(=O)[C@H](CC(C)C)N(C)C(=O)[C@H](CCc2ccc(C(F)(F)F)cc2)NC(=O)CN(C)C(=O)[C@H](CC2CCCCC2)N(C)C(=O)CN(C)C(=O)CN(C)C1=O [Compound 839] (cyclo([Aib][NMeL][d(β3hA)][NMeL]I[Sar][Sar][NMeCha][Sar][hPhe(4-CF3)][NMeL])) is below 70 nM. Could you check?
not met

// query: CC[C@H](C)[C@@H]1NC(=O)[C@H](C)N(C)C(=O)C[C@@H](C)NC(=O)[C@H](CC(C)C)N(C)C(=O)[C@H](Cc2ccccc2)N(C)C(=O)[C@H](CC(C)C)NC(=O)[C@H](CCc2cc(Cl)ccc2F)NC(=O)CN(C)C(=O)[C@H](Cc2ccc(Cl)cc2)N(C)C(=O)CN(C)C(=O)CN(C)C1=O [Compound 2094] (cyclo(I[Sar][Sar][NMePhe(4-Cl)][Sar][X29]L[NMeF][NMeL][d(β3hA)][NMeA]))
not met

---

Consider the following compounds and their measured IC50 readings.
- test.target: protein-protein interaction between Kras and SOS1 (biotin-tagged human Kras loaded with GDP, His-tagged human SOS1) (Homo sapiens (Human), UniProt P01116, G12D)
- experiment.description: Protein-protein interaction inhibition between Kras and SOS1 (KrasG12D-SOS PPI) using AlphaScreen;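 note: kras produced in E. coli, Ni-coupled donor beads and streptavidin acceptor beads, excitation 680 nm with emission detected at 520–620 nm via singlet oxygen transfer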
- Type: biochemical
- assay.setup: AlphaScreen; biotin-tagged human Kras loaded with GDP, His-tagged human SOS1; read-out: KRAS G12D-SOS PPI IC50
Numbered stars: 1 amine (or outer) side, 2 acyl side, 3 side chain; on linkers, the order of the positions; unused ones are H or OH. Bridge positions count the residues as written; N and C are the ends. Square brackets hold non-standard residues; d marks the D form. Peptide text beside a SMILES is read from it. * marks the point of attachment. hPhe(3-Cl-4-CF3) = N[C@@H](CCc1ccc(C(F)(F)F)c(Cl)c1)C(=O)O; X11 = O=C([C@H](CCc1ccc2occc2c1)N[*:1])[*:2]; NMeGly(cPent) = CN[C@H](C(=O)O)C1CCCC1; NMeCha = CN[C@@H](CC1CCCCC1)C(=O)O; NMeD = CN[C@@H](CC(=O)O)C(=O)O; NMeL = CN[C@@H](CC(C)C)C(=O)O; Cba = N[C@@H](CC1CCC1)C(=O)O; NMeV = CN[C@H](C(=O)O)C(C)C; NMeA = CN[C@@H](C)C(=O)O; Piperidide = C1CCN(*)CC1; Ac5c = NC1(C(=O)O)CCCC1; Aze = O=C(O)[C@@H]1CCN1; Sar = CNCC(=O)O
Include the unit right after the number.

Returns the measured IC50 for the input compound. Input: CC[C@H](C)[C@@H]1NC(=O)[C@H](CC(C)C)N(C)C(=O)C[C@@H](C(=O)N2CCCCC2)N(C)C(=O)[C@H](C2CCCC2)N(C)C(=O)C2(CCCC2)NC(=O)[C@@H]2CCCN2C(=O)[C@H](CCc2ccc3occc3c2)NC(=O)CN(C)C(=O)[C@H](CC2CCCCC2)N(C)C(=O)[C@@H]2CCN2C(=O)[C@H](C)N(C)C1=O [Compound 2063] ([NMeL]I[NMeA][Aze][NMeCha][Sar][X11]P[Ac5c][NMeGly(cPent)][NMeD]-Piperidide; lactam N-11 (inferred); C-terminus assumed)
8.8 nM

More entries:
# get_value(readout='IC50', item= CC(C)C[C@H]1C(=O)N[C@@H](CC2CCC2)C(=O)N(C)[C@@H](C)C(=O)N2CC[C@H]2C(=O)N(C)[C@@H](CC2CCCCC2)C(=O)N(C)CC(=O)N[C@@H](CCc2ccc(C(F)(F)F)c(Cl)c2)C(=O)N2CCC[C@H]2C(=O)NC2(CCCC2)C(=O)N(C)[C@@H](C(C)C)C(=O)N(C)[C@H](C(=O)N2CCCCC2)CC(=O)N1C [Compound 733] ([NMeL][Cba][NMeA][Aze][NMeCha][Sar][hPhe(3-Cl-4-CF3)]P[Ac5c][NMeV][NMeD]-Piperidide; lactam N-11) )
51 nM
